- systemName: human TLR8 (Homo sapiens)
- Sequence (Q9NR97 27-1041): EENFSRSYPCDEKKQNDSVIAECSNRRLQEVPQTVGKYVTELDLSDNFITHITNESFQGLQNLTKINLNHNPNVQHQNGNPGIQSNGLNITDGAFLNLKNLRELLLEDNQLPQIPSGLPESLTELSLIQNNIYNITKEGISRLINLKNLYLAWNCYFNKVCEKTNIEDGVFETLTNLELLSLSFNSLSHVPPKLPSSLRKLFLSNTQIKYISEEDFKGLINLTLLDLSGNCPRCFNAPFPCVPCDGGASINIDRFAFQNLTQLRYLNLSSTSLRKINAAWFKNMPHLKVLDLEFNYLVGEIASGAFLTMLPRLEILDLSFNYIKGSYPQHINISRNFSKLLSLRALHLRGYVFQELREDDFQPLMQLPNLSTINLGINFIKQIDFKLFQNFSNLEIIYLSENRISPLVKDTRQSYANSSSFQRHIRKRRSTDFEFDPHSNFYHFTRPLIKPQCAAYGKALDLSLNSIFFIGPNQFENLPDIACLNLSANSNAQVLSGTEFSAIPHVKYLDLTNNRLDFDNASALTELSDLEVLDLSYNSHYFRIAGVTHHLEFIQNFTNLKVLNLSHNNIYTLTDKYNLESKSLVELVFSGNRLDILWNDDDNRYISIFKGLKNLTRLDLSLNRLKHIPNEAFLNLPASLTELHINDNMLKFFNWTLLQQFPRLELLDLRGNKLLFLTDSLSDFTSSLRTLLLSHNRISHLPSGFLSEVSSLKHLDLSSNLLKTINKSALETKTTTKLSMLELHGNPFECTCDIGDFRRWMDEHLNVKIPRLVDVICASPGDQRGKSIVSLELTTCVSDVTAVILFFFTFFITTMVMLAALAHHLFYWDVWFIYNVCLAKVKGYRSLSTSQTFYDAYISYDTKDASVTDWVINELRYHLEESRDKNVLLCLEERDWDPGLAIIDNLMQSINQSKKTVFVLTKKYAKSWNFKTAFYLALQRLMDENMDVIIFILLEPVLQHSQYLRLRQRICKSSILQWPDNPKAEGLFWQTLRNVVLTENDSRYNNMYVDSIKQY
- testSummary: TLR8 inhibition reporter assay (HEK-Blue cells, secreted embryonic alkaline phosphatase reporter)
- conditionSet: HEK-Blue cells overexpressing human TLR8, stimulated with R848 15.9 μM; read-out: TLR 8 IC50
The following compounds are shown together with reported IC50 values.

{"compound": "Cc1cc(C2CCN(C3CC4CCC(C3)N4C(C)C)CC2)cc2[nH]c(-c3ccc(S(C)(=O)=O)cc3)nc12 (stereo not shown) [Example 332]", "systemName": "human TLR8 (Homo sapiens)", "measuredEndpoint": "IC50", "valueMeasured": "> 50 µM"}
{"compound": "CC(C)CN1C2CCC1CC(N1CCC(c3cc(F)c4nc(-c5ccc(S(C)(=O)=O)cc5)n(C5CC5)c4c3)CC1)C2 (single isomer, unassigned) [Example 323]", "systemName": "human TLR8 (Homo sapiens)", "measuredEndpoint": "IC50", "valueMeasured": "> 50 µM"}
{"compound": "Cn1c(-c2ccc(S(C)(=O)=O)cc2)nc2cc(F)c(C3CCN(C4CCN(CC5CC5)CC4)CC3)cc21", "systemName": "human TLR8 (Homo sapiens)", "measuredEndpoint": "IC50", "valueMeasured": "> 50 µM"}
{"compound": "Cc1cc(C2CCN(C3CCN(CC4CC4)CC3)CC2)cc2c1nc(-c1ccc(S(C)(=O)=O)c(F)c1)n2C", "systemName": "human TLR8 (Homo sapiens)", "measuredEndpoint": "IC50", "valueMeasured": "> 50 µM"}

Ask: Request - read-out IC50 | tested on human TLR8 (Homo sapiens) | compound COc1ccc(-c2nc3cc(C4CCN(C5CCN(C(C)C)CC5)CC4)ccc3n2C)cc1OC
Result: 0.84 µM

Ask: Repeat with Cn1c(-c2ccc(S(C)(=O)=O)cc2)nc2ccc(C3CCN(C4CCCN(C5CCC5)CC4)CC3)c(F)c21 (stereo not shown) [Example 313]
Result: > 50 µM

Ask: Repeat with Cc1cc(-c2cc(F)c(CN3CCC(N(C)C)CC3)c(F)c2)cc2c1nc(-c1ccc(S(C)(=O)=O)cc1)n2C
Result: 6.4 µM
